Origin of measurements: patent US20220169643A1

studySystem: Estrogen Receptor Alpha Ligand binding domain (ER alpha-LBD (GST)) (Homo sapiens, UniProt P03372)
Sequence (P03372 307-554): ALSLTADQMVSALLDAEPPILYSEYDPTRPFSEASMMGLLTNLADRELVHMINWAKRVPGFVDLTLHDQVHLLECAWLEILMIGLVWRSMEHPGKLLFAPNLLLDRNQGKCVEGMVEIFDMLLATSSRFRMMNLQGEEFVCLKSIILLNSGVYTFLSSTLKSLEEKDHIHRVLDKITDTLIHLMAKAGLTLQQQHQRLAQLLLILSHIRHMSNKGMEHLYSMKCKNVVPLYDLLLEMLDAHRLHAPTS
testSummary: ERα Binding Assay (LanthaScreen TR-FRET competition)
particulars: competitive displacement of Fluormone ES2 tracer from recombinant human ER alpha-LBD (residues 307-554), 4 hours at room temperature
Would you kindly list pIC50 for each of these compounds?
Hey, just a heads up that pIC50 is the negative log base 10 of the concentration in molar.

In: For C[C@@H]1Cc2c([nH]c3ccccc23)[C@@H](c2cnc(N3CCC(CN4CCC(CN5CCN(c6ccc7c(c6)CN(C6CCC(=O)NC6=O)C7=O)CC5)CC4)CC3)nc2)N1CC(C)(C)F (some centres unmarked) , write its pIC50.
Out: 8.07

In: For C[C@@H]1Cc2c([nH]c3ccccc23)[C@@H](c2cnc(OC3CCC4(CC3)CCN(CC3CCN(c5ccc6c(c5)CN(C5CCC(=O)NC5=O)C6=O)CC3)CC4)nc2)N1CC(C)(C)F (some centres unmarked) , write its pIC50.
Out: 8.66

In: For C[C@@H]1Cc2c([nH]c3ccccc23)[C@@H](c2cnc(N3CCC(CN4CCN(CC5CCN(c6ccc7c(c6)CN(C6CCC(=O)NC6=O)C7=O)CC5)CC4)CC3)nc2)N1CC(C)(C)F (some centres unmarked) , write its pIC50.
Out: 8.25

In: For C[C@@H]1Cc2c([nH]c3ccccc23)[C@@H](c2cnc(N3CCC(CN4CCN(c5ccc6c(c5)C(=O)N(C5CCC(=O)NC5=O)C6=O)CC4)CC3)nc2)N1CC(C)(C)F (some centres unmarked) , write its pIC50.
Out: 8.43

In: For C[C@@H]1Cc2c([nH]c3ccccc23)[C@@H](c2cnc(N3CCC(CCCN4CCN(c5ccc6c(c5)CN(C5CCC(=O)NC5=O)C6=O)CC4)CC3)nc2)N1CC(C)(C)F (some centres unmarked) , write its pIC50.
Out: 8.37
